system_under_test: T1, human MAdCAM expressed on cells (human, UniProt Q13477 19-382)
T1 construct: whole, on cells; also called MADCAM1
T1 sequence (looked up): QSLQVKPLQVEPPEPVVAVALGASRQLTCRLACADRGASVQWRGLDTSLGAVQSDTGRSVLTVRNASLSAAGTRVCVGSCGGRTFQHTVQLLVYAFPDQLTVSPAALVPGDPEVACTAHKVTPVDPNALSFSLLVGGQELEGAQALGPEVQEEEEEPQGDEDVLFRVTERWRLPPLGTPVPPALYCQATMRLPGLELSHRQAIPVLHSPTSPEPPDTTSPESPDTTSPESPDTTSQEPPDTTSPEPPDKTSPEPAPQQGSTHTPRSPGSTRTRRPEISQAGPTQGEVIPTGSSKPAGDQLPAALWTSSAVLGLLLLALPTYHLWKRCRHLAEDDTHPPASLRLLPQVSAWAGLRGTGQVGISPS
experiment_notes: cell binding
endpoint: binding result

binder	result_value
MAdCAM antibody Clone ID 35 of Table 6 (scFv) (scFv) scFv: EVQLLESGGGLVQPGGSLRLSCAASGFSFSSYTMNWVRQAPGKGLEWVSFITSSSRTIYYADSVKGRFTISRDNSKNTLYLQMNSLRAEDTAVYYCARDRRGDYGDSWYFDLWGRGTLVTVSSGGGGSGGGGSGGGGSGGGGSEIVMTQSPATLSVSPGERATLSCRASQSVRNYLAWYQQKPGQAPRLLIYGASTRATGIPARFSGSGSGTEFTLTISSLQSEDFAVYYCQQYGSSPLTFGGGTKVEIK	binds
MAdCAM antibody Clone ID 57 of Table 6 (scFv) (scFv) scFv: QVQLVQSGAEVKKPGASVKVSCKASGYTFTSYYMHWVRQAPGQGLEWMGIINPSGGSTSYAQKFQGRVTMTRDTSTSTVYMELSSLRSEDTAVYYCARDSVAGTGGRYYGMDVWGQGTLVTVSSGGGGSGGGGSGGGGSGGGGSDIQMTQSPSSLSASVGDRVTITCRASQGISNYFAWYQQKPGKAPKLLIYAASSLQGGVPSRFSGSGSGTDFTLTISSLQPEDFATYYCQQSYSLPYTFGQGTKLEIK	binds
MAdCAM antibody Clone ID 49 of Table 6 (scFv) (scFv) scFv: QVQLVQSGAEVKKPGASVKVSCKASGDTFTGYYIHWVRQAPGQGLEWMGWINPNSGGTNYAQKFQGRVTMTRDTSTSTVYMELSSLRSEDTAVYYCARSGLWLGSYYGMDVWGQGTLVTVSSGGGGSGGGGSGGGGSGGGGSDIQMTQSPSSLSASVGDRVTITCRASQTISIWLAWYQQKPGKAPKLLIYDASTLQSGVPSRFSGSGSGTDFTLTISSLQPEDFATYYCQQYSSYPLTFGQGTKVEIK	binds
